System: Caco-2 monolayer permeability, A-to-B, LC-MS/MS
Experiment description: Inhibitors of Cruzain: Caco-2 Permeability Profiling Assay
Conditions used: active compounds read high
Quantity: apparent permeability Papp

>>> result("Cc1ccc(OCCn2c(CCNC(=O)C3CCCCC3)nc3ccccc32)cc1")
"4.1 10^-6 cm/s"
